target: DNA repair nuclease/redox regulator APEX1 (Homo sapiens); assay: qHTS Validation Assay for Inhibitors of the Human Apurinic/apyrimidinic Endonuclease 1 (APE1) (AID 1705;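 also: TAMRA fluorescence gain over two minutes as APE1 cuts a quenched THF abasic duplex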); conditions: purified APE1 endonuclease activity, fluorescence, titration; series mostly up to 57.1 µM
Results filed as inconclusive are left out. Activity calls are given as the source filed them. Calls follow the shape of the dose curve; as a rule, active = well fitted inhibition curve with a large enough effect; inconclusive = small, poorly fitted or top-dose-only effect; inactive = flat fitted curve, though single readings scatter.
Measurement type: outcome

{"columns": ["Compound", "Measured on", "outcome"],
 "data": [
  ["CC(C)C[C@H]1C(=O)N2CCCC2[C@]2(O)O[C@](NC(=O)[C@@H]3C=C4c5cccc6[nH]c(Br)c(c56)C[C@H]4N(C)C3)(C(C)C)C(=O)N12 (stereo not given in full)", "DNA repair nuclease/redox regulator APEX1 (Homo sapiens)", "inactive"],
  ["CCSC(N)=Nc1ccc(C(F)(F)F)cc1", "DNA repair nuclease/redox regulator APEX1 (Homo sapiens)", "inactive"],
  ["CN1C[C@H](C(=O)N[C@]2(C)O[C@@]3(O)C4CCCN4C(=O)[C@H](Cc4ccccc4)N3C2=O)C[C@@H]2c3cccc4[nH]cc(c34)C[C@H]21 (stereo not given in full)", "DNA repair nuclease/redox regulator APEX1 (Homo sapiens)", "inactive"],
  ["NC(=S)NCCCC(N)C(=O)O (stereo not given)", "DNA repair nuclease/redox regulator APEX1 (Homo sapiens)", "inactive"],
  ["CCCCCCCCCCCCCCC/C=C/[C@@H](O)[C@H](NC(=O)CCCCCCCCCCCCC)OC (tested in a mixture with another compound)", "DNA repair nuclease/redox regulator APEX1 (Homo sapiens)", "inactive"],
  ["O=[N+]([O-])c1ccc(CSc2ncnc3c2ncn3[C@@H]2O[C@H](CO)[C@H](O)[C@H]2O)cc1", "DNA repair nuclease/redox regulator APEX1 (Homo sapiens)", "inactive"],
  ["COc1cc2c(cc1OC)C(c1ccccc1)CN(C)CC2 (stereo not given)", "DNA repair nuclease/redox regulator APEX1 (Homo sapiens)", "inactive"],
  ["CN1C2CC(OC(=O)C(CO)c3ccccc3)CC1C1OC12 (stereo not given)", "DNA repair nuclease/redox regulator APEX1 (Homo sapiens)", "inactive"]
]}

Below is a list of compounds. For each, state its recorded outcome.
1. CC(N)=NCCCC(N)C(=O)O (stereo not given)
2. OC[C@H]1O[C@@H](n2cnc3c(Nc4ccccc4)ncnc32)[C@H](O)[C@H]1O

Outgoing:
inactive
inactive
